Give measured self-cleavage for each item. Keep answers brief.
B1: CPEB3 Ribozyme (parent)
chain: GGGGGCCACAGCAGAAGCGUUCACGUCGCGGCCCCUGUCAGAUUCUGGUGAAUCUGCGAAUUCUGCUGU

# Variants of: B1
# method.notes: self-cleavage, relative activity (ratio to wild type); higher = more cleavage; co-transcriptional

// known answers, use as guide
C9A A40G    1
A8G U61A    0.379
A10G A52G    1.01
G1C C29A    0.168
A8C A42C    0.992

Field: self-cleavage. Fill in for each record below.
1. C12U C35G
2. C24A U61G
3. G14U G41A
4. G31U G68C

## Result
0.45
0.347
0.206
0.958

FYI, the data here is from the RNAGym collection of RNA variant scans (doi:10.7554/elife.80360).
